Provenance of the data: ChEMBL document CHEMBL4739717

- assaySystem: Dual specificity tyrosine-phosphorylation-regulated kinase 1A (Homo sapiens)
- protocolDescription: Inhibition of recombinant DYRK1A (unknown origin) using Ser/Thr 18 peptide as substrate incubated for 1 hr in presence of ATP by FRET assay
pEC50: −log10 of the molar value.
readoutLabel: pEC50

Examples with answers:
In [3]: df
Out[3]:
                    compoundstructurestring  endpointresult
0  O=C(Nc1cccnc1)Nc1c[nH]nc1C(=O)Nc1ccc(C(F)(F)F)nc1            7.66
1  Cc1n[nH]c2ccc(-c3cncc(O[C@H]4CCNC[C@@H]4F)n3)cc12            7.96
2  CCCCC(=O)Nc1cncc(-c2ccc3[nH]nc(-c4cc5c(-c6ccoc6)cncc5[nH]4)c3c2)c1            7.89
3  CCC(=O)Nc1cncc(-c2ccc3[nH]nc(-c4nc5c(-c6cccc(F)c6)ccnc5[nH]4)c3n2)c1            7.44
4  CC(C)(C)C(=O)Nc1cncc(-c2cnc3[nH]nc(-c4nc5c(-c6ccoc6)cncc5[nH]4)c3c2)c1            7.92

[1] FC1(F)CCN(Cc2cncc(-c3cc4c(-c5cc6cccnc6[nH]5)n[nH]c4cn3)c2)C1
[2] CC(C)CC(=O)Nc1cncc(-c2cnc3[nH]nc(-c4cc5c(-c6ccncc6)cccc5[nH]4)c3c2)c1
// pick larger pEC50 from pair: 1 vs 2 Use the label to indicate which entry you chose. 1
(1: 7.92, 2: 7.64)

###

- assaySystem: Dual specificity tyrosine-phosphorylation-regulated kinase 1A (Homo sapiens)
- protocolDescription: Inhibition of recombinant DYRK1A (unknown origin) using Ser/Thr 18 peptide as substrate incubated for 1 hr in presence of ATP by FRET assay
readoutLabel: EC50 (nM)

Examples with answers:
>>> df
                    compoundstructurestring  outputunit  endpointresult
0  O=C(Nc1cncc(-c2cnc3[nH]nc(-c4nc5c(-c6ccoc6)cncc5[nH]4)c3c2)c1)c1ccccc1          nM              30
1  CC(C)(C)C(=O)Nc1cncc(-c2ccc3[nH]nc(-c4nc5c(N6CCCCC6)cncc5[nH]4)c3c2)c1          nM               8
2  O=C(Nc1ccc(N2CCNCC2)nc1)c1n[nH]cc1/C=C/c1cccnc1          nM               1
3  CC(C)C(=O)Nc1cncc(-c2ccc3[nH]nc(-c4nc5c(-c6ccccc6F)cncc5[nH]4)c3c2)c1          nM              10
4  c1cc2cc(-c3n[nH]c4ccc(-c5cncc(OCCN6CCCC6)c5)cc34)[nH]c2cn1          nM               4

[A] O=C(Nc1cncc(-c2ccc3[nH]nc(-c4cc5cccnc5[nH]4)c3c2)c1)C1CCCC1
[B] Cc1ccncc1-c1ccc2[nH]nc(-c3cc4c(-c5cccnc5)cncc4[nH]3)c2n1
[C] COc1cncc(C(=O)Nc2c[nH]nc2C(=O)Nc2ccc(N3CCC(F)(F)C3)nc2)c1
Ordering criterion: EC50; begin with the maximum. Lab note: record answer as labels in requested order. B, C, A
(B: 45 nM, C: 14 nM, A: 6 nM)

[A] c1cnc2cc(-c3n[nH]c4ccc(-c5cncc(CN6CCCCC6)c5)cc34)[nH]c2c1
[B] CN1CCN(c2nccc3[nH]c(-c4n[nH]c5cnc(-c6cncc(NC(=O)C7CCCCC7)c6)cc45)cc23)CC1
[C] CC(C)C(=O)Nc1cncc(-c2cc3c(-c4cc5c(-c6cccc(F)c6)cncc5[nH]4)n[nH]c3cn2)c1
Please list these in order of increasing EC50. Thank you! Lab note: record answer as labels in requested order. B, A, C
(B: 3 nM, A: 5 nM, C: 65 nM)

[I] c1cncc(-c2cncc3[nH]c(-c4n[nH]c5ncc(-c6cncnc6)cc45)cc23)c1
[II] CN(C)Cc1cncc(-c2ccc3[nH]nc(-c4nc5c(-c6cccc(F)c6)cncc5[nH]4)c3n2)c1
[III] c1cc(-c2ccnc3[nH]c(-c4n[nH]c5ccc(-c6cncc(CNCC7CCCC7)c6)nc45)cc23)ccn1
Please list these in order of increasing EC50. Thank you! Lab note: record answer as labels in requested order. I, III, II

[A] CC#CC(=O)Nc1cc2cc(-c3cnn(C)c3)ccc2cn1
[B] Cc1ccncc1-c1cc2c(-c3cc4cnccc4[nH]3)n[nH]c2cn1
[C] O=C(Cc1ccccc1)Nc1cncc(-c2ccc3[nH]nc(-c4nc5c(-c6ccoc6)cncc5[nH]4)c3c2)c1
[D] CN1CCN(c2nccc3[nH]c(-c4n[nH]c5ccc(-c6cncc(CN7CCCC7)c6)cc45)cc23)CC1
Ordering criterion: EC50; begin with the maximum. Lab note: record answer as labels in requested order. D, C, B, A

###

- assaySystem: Dual specificity tyrosine-phosphorylation-regulated kinase 1A (Homo sapiens, UniProt Q13627)
- protocolDescription: Inhibition of recombinant DYRK1A (unknown origin) using Ser/Thr 18 peptide as substrate incubated for 1 hr in presence of ATP by FRET assay
readoutLabel: EC50 (nM)

Examples with answers:
                    compoundstructurestring  readoutlabel  endpointresult
0  CN(C)Cc1cncc(-c2cnc3[nH]nc(-c4nc5c(-c6cccc(F)c6)cncc5[nH]4)c3c2)c1          EC50               5
1  CCNCc1cncc(-c2ccc3[nH]nc(-c4nc5c(-c6cc(F)cc(NCCN(C)C)c6)ccnc5[nH]4)c3n2)c1          EC50               8
2  Nc1cncc(-c2ccc3[nH]nc(-c4cc5c(-c6ccncc6)ccnc5[nH]4)c3n2)c1          EC50               8
3  c1cc(-c2ccnc3[nH]c(-c4n[nH]c5ccc(-c6cncnc6)cc45)cc23)ccn1          EC50              68
4  CN(C)Cc1cncc(-c2ccc3[nH]nc(-c4cc5cnccc5[nH]4)c3n2)c1          EC50              13
5  O=C(Cc1ccccc1)Nc1cncc(-c2ccc3[nH]nc(-c4cc5cnccc5[nH]4)c3c2)c1          EC50               8

[a] O=C(Nc1cccnc1)c1n[nH]c2ccc(-c3cncc(NC(=O)N4CCOCC4)c3)cc12
[b] O=C(Nc1cncc(-c2cc3c(-c4cc5cccnc5[nH]4)n[nH]c3cn2)c1)C1CC1
[c] CC(C)(C)CC(=O)Nc1cncc(-c2ccc3[nH]nc(-c4nc5ccncc5[nH]4)c3n2)c1
[d] Nc1cncc(-c2ccc3[nH]nc(-c4cc5c(-c6ccccn6)ccnc5[nH]4)c3c2)c1
Ordering criterion: EC50; begin with the maximum. Lab note: record answer as labels in requested order. c, d, b, a
(c: 21 nM, d: 13 nM, b: 6 nM, a: 2 nM)

###

- assaySystem: Dual specificity tyrosine-phosphorylation-regulated kinase 1A (Homo sapiens)
- protocolDescription: Inhibition of recombinant DYRK1A (unknown origin) using Ser/Thr 18 peptide as substrate incubated for 1 hr in presence of ATP by FRET assay
readoutLabel: EC50 (nM)

Examples with answers:
>>> df
                    compoundstructurestring  outputunit  endpointresult
0  O=C(Nc1cncc(-c2cnc3[nH]nc(-c4cc5c(-c6ccncc6)cncc5[nH]4)c3c2)c1)C1CCC1          nM               4
1  Cc1cn(-c2nccc3[nH]c(-c4n[nH]c5ccc(-c6cncc(NC(=O)CC(C)C)c6)nc45)nc23)cn1          nM              28
2  CC(C)C(=O)Nc1cncc(-c2cc3c(-c4cc5cnccc5[nH]4)n[nH]c3cn2)c1          nM               1
3  Fc1ccc(-c2nccc3[nH]c(-c4n[nH]c5ccc(-c6cncc(CN7CCCC7)c6)cc45)cc23)cc1          nM              60
4  CC(C)(C)C(=O)Nc1cncc(-c2ccc3[nH]nc(-c4nc5c(-c6ccc(F)cc6)cncc5[nH]4)c3c2)c1          nM              55

[A] CCNCc1cncc(-c2cnc3[nH]nc(-c4cc5c(-c6cccnc6)ccnc5[nH]4)c3c2)c1
[B] Cc1n[nH]c2cc(F)c(-c3cncc(CN4CCCCC4)n3)cc12
Form: Entry with minimum EC50 (choose one): A / B Use the label to indicate which entry you chose. A

###

- protocolDescription: Effect on Wnt signaling pathway in human SW480 cells harbouring TCF/LEF luciferase reporter gene and SP5-Luc reporter gene incubated for 36 to 48 hrs by luminescence assay
- Type: cell-based
pEC50: −log10 of the molar value.
readoutLabel: pEC50

>>> print(df.to_string())
                    compoundstructurestring  endpointresult
0  CCCC(=O)Nc1cncc(-c2ccc3[nH]nc(-c4nc5c(N6CCCCC6)cncc5[nH]4)c3c2)c1            7.38
1  Nc1cncc(-c2cnc3[nH]nc(-c4cc5c(-c6ccccc6F)nccc5[nH]4)c3c2)c1            6.70

[a] CC(C)CC(=O)Nc1cncc(-c2ccc3[nH]nc(-c4nc5c(-c6cc(F)cc(CNS(C)(=O)=O)c6)cncc5[nH]4)c3c2)c1
[b] FC1(F)CCN(Cc2cncc(-c3cnc4[nH]nc(-c5cc6c(-c7ccncc7)cccc6[nH]5)c4c3)c2)C1
Form: Entry with minimum pEC50 (choose one): a / b Use the label to indicate which entry you chose. b
(b: 6.15, a: 8.30)

[I] Nc1cncc(-c2cc3c(-c4cc5c(N6CCCCC6)cncc5[nH]4)n[nH]c3cn2)c1
[II] CN(C)Cc1cncc(-c2ccc3[nH]nc(-c4cc5c(-c6ccccc6F)cncc5[nH]4)c3n2)c1
Form: Entry with minimum pEC50 (choose one): I / II Use the label to indicate which entry you chose. I
(I: 5.53, II: 5.86)

[A] CN1CCN(c2nccc3[nH]c(-c4n[nH]c5ccc(-c6cncc(CN7CCCC7)c6)cc45)cc23)CC1
[B] CC(C)(C)CC(=O)Nc1cncc(-c2cc3c(-c4cc5cnccc5[nH]4)n[nH]c3cn2)c1
[C] Cc1n[nH]c2ccc(-c3cncc(N[C@H](CO)Cc4cccc(C(F)(F)F)c4)n3)cc12
[D] CN(C)CCN(C)c1ccc(NC(=O)c2n[nH]c3ccc(-c4cncc(CN5CCCCC5)c4)cc23)cn1
[E] CC(C)CC(=O)Nc1cncc(-c2ccc3[nH]nc(-c4nc5cncc(-c6cccc(F)c6)c5[nH]4)c3c2)c1
Please list these in order of increasing pEC50. Thank you! Lab note: record answer as labels in requested order. A, B, C, D, E

[I] Cc1ccncc1-c1cc2c(-c3cc4cnccc4[nH]3)n[nH]c2cn1
[II] CN1CCC(Nc2cc(C(=O)Nc3cc4cc(-c5cnn(C)c5)ccc4cn3)ccn2)CC1
Form: Entry with minimum pEC50 (choose one): I / II Use the label to indicate which entry you chose. I
(I: 6.41, II: 7.18)
